Data origin, for the record: ChEMBL document CHEMBL5550200

Target or system Ephrin type-A receptor 2 (Homo sapiens, UniProt P29317); recorded quantity deltaTm.
Value expressed in K; do not type the unit.

compound_structure=COc1cc(-c2cnc3nc2NCCCNS(=O)(=O)c2cc(ccc2OCCN2CCOCC2)N3)ccc1F assay_metric=deltaTm obs_value=6.9
compound_structure=Cc1cc(Cl)c(Cl)cc1-c1cnc2nc1NCCCNS(=O)(=O)c1cccc(c1)N2 assay_metric=deltaTm obs_value=6.2
compound_structure=COc1cc(-c2cnc3nc2NCCCNS(=O)(=O)c2cccc(c2)N3)cc(F)c1F assay_metric=deltaTm obs_value=5

# input Provide measured deltaTm on Ephrin type-A receptor 2 (Homo sapiens, UniProt P29317) for CN[C@@H]1C[C@H]2O[C@@](C)([C@@H]1OC)n1c3ccccc3c3c4c(c5c6ccccc6n2c5c31)C(=O)NC4 please.
# Sequence (P29317 whole entry): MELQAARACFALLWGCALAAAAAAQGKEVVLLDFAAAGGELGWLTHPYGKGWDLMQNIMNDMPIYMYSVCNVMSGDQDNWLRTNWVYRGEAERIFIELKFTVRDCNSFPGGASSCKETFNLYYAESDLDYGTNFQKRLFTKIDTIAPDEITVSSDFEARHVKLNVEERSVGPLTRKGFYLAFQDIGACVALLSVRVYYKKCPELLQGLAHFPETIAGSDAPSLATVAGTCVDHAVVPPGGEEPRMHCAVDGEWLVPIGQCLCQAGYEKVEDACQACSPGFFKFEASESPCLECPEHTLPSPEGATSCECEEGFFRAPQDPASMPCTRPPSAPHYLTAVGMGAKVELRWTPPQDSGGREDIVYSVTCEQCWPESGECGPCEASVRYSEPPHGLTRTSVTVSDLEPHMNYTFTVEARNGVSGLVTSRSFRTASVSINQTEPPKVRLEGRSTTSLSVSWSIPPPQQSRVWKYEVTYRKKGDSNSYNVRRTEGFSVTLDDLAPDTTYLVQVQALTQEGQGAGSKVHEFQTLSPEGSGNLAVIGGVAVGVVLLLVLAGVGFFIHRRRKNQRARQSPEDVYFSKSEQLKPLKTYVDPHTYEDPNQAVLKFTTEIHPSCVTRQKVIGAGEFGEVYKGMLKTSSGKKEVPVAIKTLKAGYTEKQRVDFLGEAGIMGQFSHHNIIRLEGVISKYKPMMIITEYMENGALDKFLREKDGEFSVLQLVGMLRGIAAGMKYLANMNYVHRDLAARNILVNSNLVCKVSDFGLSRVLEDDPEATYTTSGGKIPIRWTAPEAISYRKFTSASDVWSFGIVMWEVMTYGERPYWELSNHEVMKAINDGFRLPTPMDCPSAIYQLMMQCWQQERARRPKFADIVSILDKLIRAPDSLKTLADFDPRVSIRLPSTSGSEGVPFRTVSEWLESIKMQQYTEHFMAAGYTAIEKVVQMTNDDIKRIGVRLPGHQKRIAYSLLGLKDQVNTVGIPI
# output 6.4

# input Provide measured deltaTm on Ephrin type-A receptor 2 (Homo sapiens, UniProt P29317) for COc1cc(-c2cnc3nc2NCCCNS(=O)(=O)c2cc(ccc2-c2ccc(O)cc2)N3)ccc1F please.
# output 9.8
